Assay: Cmax in mouse at 5 mg/kg, iv
Format: ADME, organism-based
Design: dose 5 mg/kg, route intravenous
Conditions: in vivo
# maps each entry to its Cmax
Give the quantity in ng/mL, number only.

OC[C@H]1O[C@@H](c2ccc(Cl)c(Cc3ccc4c(c3)CC4)c2)[C@H](O)[C@@H](O)[C@@H]1O ... 5870

**Query** Entry under review: "Cc1cc(O)c([C@@H]2O[C@H](CO)[C@@H](O)[C@H](O)[C@H]2O)cc1Cc1ccc2c(c1)CC2" . Reported Cmax?
**Result** 8200

====

Below, each entry is listed alongside its reported AUC(0-inf).
Test: AUC (infinity) in mouse at 20 mg/kg administered via oral gavage
Assay type: ADME, organism-based
Design: dose 20 mg/kg, route oral, time infinity
Conditions: in vivo
Numbers only here, please. The scale is ng·h/mL.

Cc1cc(O)c([C@@H]2O[C@H](CO)[C@@H](O)[C@H](O)[C@H]2O)cc1Cc1ccc2c(c1)CC2 ... 11500

**Query** Which AUC(0-inf) is listed for "OC[C@H]1O[C@@H](c2ccc(Cl)c(Cc3ccc4c(c3)CC4)c2)[C@H](O)[C@@H](O)[C@@H]1O" ?
**Result** 25500

====

Experiment: AUC (infinity) in monkey at 2 mg/kg, iv
Assay type: ADME, organism-based, Macaca mulatta
Parameters: dose 2 mg/kg, route intravenous, time infinity
Conditions: rhesus monkey, in vivo
measured-parameter: AUC(0-inf) (µg·h/mL)
Note: unit µg·h/mL is implicit; provide only the numeric part.

**Query** What AUC(0-inf) value was documented for this compound, "OC[C@H]1O[C@@H](c2ccc(Cl)c(Cc3ccc4c(c3)CC4)c2)[C@H](O)[C@@H](O)[C@@H]1O" ?
**Result** 9.21

====

Assay: Cmax in monkey at 2 mg/kg, iv
Assay type: ADME, organism-based, Macaca mulatta
Parameters: dose 2 mg/kg, route intravenous
Conditions: rhesus monkey, in vivo
measured-parameter: Cmax (ng/mL)
Kindly provide the numeric value in ng/mL only, without the unit symbol.

**Query** What measured Cmax goes with "OC[C@H]1O[C@@H](c2ccc(Cl)c(Cc3ccc4c(c3)CC4)c2)[C@H](O)[C@@H](O)[C@@H]1O" ?
**Result** 9110

====

Reported clearance values for a set of compounds
Test: Systemic clearance in mouse at 5 mg/kg, iv
Assay type: ADME, organism-based
Details: in vivo

Cc1cc(O)c([C@@H]2O[C@H](CO)[C@@H](O)[C@H](O)[C@H]2O)cc1Cc1ccc2c(c1)CC2 ... 18.3 mL/min/kg

**Query** Need clearance, item "OC[C@H]1O[C@@H](c2ccc(Cl)c(Cc3ccc4c(c3)CC4)c2)[C@H](O)[C@@H](O)[C@@H]1O"
**Result** 13 mL/min/kg

====

Recorded inhibition values for a group of compounds are listed next.
Target: Sodium/glucose cotransporter 1 (Homo sapiens) (UniProt P13866)
Sequence (P13866 whole entry): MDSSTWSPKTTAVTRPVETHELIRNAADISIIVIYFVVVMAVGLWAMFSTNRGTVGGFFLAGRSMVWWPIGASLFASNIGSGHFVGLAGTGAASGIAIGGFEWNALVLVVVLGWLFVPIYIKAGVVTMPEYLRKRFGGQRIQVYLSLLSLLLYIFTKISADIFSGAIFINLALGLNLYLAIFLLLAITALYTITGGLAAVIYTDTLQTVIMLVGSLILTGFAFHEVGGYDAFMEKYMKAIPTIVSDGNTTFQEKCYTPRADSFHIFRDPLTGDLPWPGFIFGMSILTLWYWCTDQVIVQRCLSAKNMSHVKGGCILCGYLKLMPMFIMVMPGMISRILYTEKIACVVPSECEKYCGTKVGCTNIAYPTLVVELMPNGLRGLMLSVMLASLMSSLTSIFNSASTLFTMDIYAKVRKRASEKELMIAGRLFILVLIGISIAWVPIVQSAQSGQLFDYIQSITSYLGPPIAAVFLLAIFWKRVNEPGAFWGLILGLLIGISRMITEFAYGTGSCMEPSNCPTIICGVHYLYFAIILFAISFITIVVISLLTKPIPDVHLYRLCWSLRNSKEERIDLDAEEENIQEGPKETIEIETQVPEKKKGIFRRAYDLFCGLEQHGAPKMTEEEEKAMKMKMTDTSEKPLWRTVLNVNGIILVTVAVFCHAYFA
Experiment: Inhibition of human small intestinal SGLT1 expressed in CHOK1 cells assessed as decrease in [14C]-AMG uptake at 300 nM preincubated for 10 mins followed by [14C]-AMG addition and measured after 2 hrs by TopCount method relative to control
Assay type: cell-based
Give the number; % is assumed, so skip it.

N#Cc1ccc([C@@H]2O[C@H](CO)[C@@H](O)[C@H](O)[C@H]2O)cc1Cc1ccc2c(c1)CC2 ... 0
CN(C)c1ccc([C@@H]2O[C@H](CO)[C@@H](O)[C@H](O)[C@H]2O)cc1Cc1ccc2c(c1)CC2 ... 67
COc1cc(C2CC2)c(Cc2ccc3c(c2)CC3)cc1[C@@H]1O[C@H](CO)[C@@H](O)[C@H](O)[C@H]1O ... 67

# ---- query compound ----
**Query** What measured inhibition goes with "OC[C@H]1O[C@@H](c2cccc(Cc3ccc4c(c3)CC4)c2)[C@H](O)[C@@H](O)[C@@H]1O" ?
**Result** 5

====

Assay: Terminal half life in monkey at 2 mg/kg, iv
Format: ADME, organism-based, Macaca mulatta
Settings: rhesus monkey, in vivo, read-out: beta t1/2 (converted)
measured-parameter: half-life (h)
Supply the numeric figure in h, leaving out any unit text.

**Query** Need half-life of "OC[C@H]1O[C@@H](c2ccc(Cl)c(Cc3ccc4c(c3)CC4)c2)[C@H](O)[C@@H](O)[C@@H]1O" , thanks.
**Result** 4.71

====

Experiment: Systemic clearance in monkey at 2 mg/kg, iv
Assay type: ADME, organism-based, Macaca mulatta
Details: rhesus monkey, in vivo
measured-parameter: clearance

**Query** Dear colleague, I am looking for the recorded clearance of the following compound: "OC[C@H]1O[C@@H](c2ccc(Cl)c(Cc3ccc4c(c3)CC4)c2)[C@H](O)[C@@H](O)[C@@H]1O"
**Result** 3.74 mL/min/kg

====

Experiment: Cmax in dog at 10 mg/kg administered via oral gavage
Type: ADME, organism-based, Canis lupus familiaris
Set-up: dose 10 mg/kg, route oral
Conditions: in vivo
measured-parameter: Cmax
Quick note: number first, unit second.

**Query** Consider the compound "OC[C@H]1O[C@@H](c2ccc(Cl)c(Cc3ccc4c(c3)CC4)c2)[C@H](O)[C@@H](O)[C@@H]1O" and give its measured Cmax.
**Result** 20100 ng/mL

====

Assay: Terminal half life in dog at 2 mg/kg, iv
Format: ADME, organism-based, Canis lupus familiaris
Conditions: in vivo, read-out: beta t1/2 (converted)
measured-parameter: half-life (h)
Respond numerically; units are h and should not be typed.

**Query** Recorded half-life of "OC[C@H]1O[C@@H](c2ccc(Cl)c(Cc3ccc4c(c3)CC4)c2)[C@H](O)[C@@H](O)[C@@H]1O" , please.
**Result** 7.93

====

Experiment: Oral bioavailability in dog at 10 mg/kg
Type: ADME, organism-based, Canis lupus familiaris
Conditions: in vivo
measured-parameter: bioavailability (%)
Expressed in %, but write only the number.

**Query** Could you share which bioavailability value was measured for "OC[C@H]1O[C@@H](c2ccc(Cl)c(Cc3ccc4c(c3)CC4)c2)[C@H](O)[C@@H](O)[C@@H]1O" ?
**Result** 107

====

Experiment: Volume of distribution at steady state in mouse at 5 mg/kg, iv
Format: ADME, organism-based
Settings: in vivo, read-out: Vdss
Recorded Vd values for a group of molecules are listed next.
Give just the number in L/kg; leave the unit off.

**Query** Which value of Vd has been reported for "OC[C@H]1O[C@@H](c2ccc(Cl)c(Cc3ccc4c(c3)CC4)c2)[C@H](O)[C@@H](O)[C@@H]1O" in the records?
**Result** 2.19

**Query** Could you tell me which Vd is on file for "Cc1cc(O)c([C@@H]2O[C@H](CO)[C@@H](O)[C@H](O)[C@H]2O)cc1Cc1ccc2c(c1)CC2" ?
**Result** 1.06

====

Test: Terminal half life in mouse at 20 mg/kg administered via oral gavage
Format: ADME, organism-based
Details: in vivo, read-out: beta t1/2 (converted)
Listed next: entries and their corresponding half-life.
Remember to quote the unit after the number.

OC[C@H]1O[C@@H](c2ccc(Cl)c(Cc3ccc4c(c3)CC4)c2)[C@H](O)[C@@H](O)[C@@H]1O ... 3.29 h

**Query** Report half-life for "Cc1cc(O)c([C@@H]2O[C@H](CO)[C@@H](O)[C@H](O)[C@H]2O)cc1Cc1ccc2c(c1)CC2" please.
**Result** 2.68 h

====

We begin with a simple list: items and their reported Cmax.
Test: Cmax in mouse at 20 mg/kg administered via oral gavage
Assay type: ADME, organism-based
Design: dose 20 mg/kg, route oral
Conditions: in vivo
Write the value in ng/mL as a bare number.

**Query** Entry under review: "Cc1cc(O)c([C@@H]2O[C@H](CO)[C@@H](O)[C@H](O)[C@H]2O)cc1Cc1ccc2c(c1)CC2" . Reported Cmax?
**Result** 4760

**Query** Quick one: Cmax for "OC[C@H]1O[C@@H](c2ccc(Cl)c(Cc3ccc4c(c3)CC4)c2)[C@H](O)[C@@H](O)[C@@H]1O" ?
**Result** 5680

====

Target: Sodium/glucose cotransporter 2 (Homo sapiens) (UniProt P31639)
Sequence (P31639 whole entry): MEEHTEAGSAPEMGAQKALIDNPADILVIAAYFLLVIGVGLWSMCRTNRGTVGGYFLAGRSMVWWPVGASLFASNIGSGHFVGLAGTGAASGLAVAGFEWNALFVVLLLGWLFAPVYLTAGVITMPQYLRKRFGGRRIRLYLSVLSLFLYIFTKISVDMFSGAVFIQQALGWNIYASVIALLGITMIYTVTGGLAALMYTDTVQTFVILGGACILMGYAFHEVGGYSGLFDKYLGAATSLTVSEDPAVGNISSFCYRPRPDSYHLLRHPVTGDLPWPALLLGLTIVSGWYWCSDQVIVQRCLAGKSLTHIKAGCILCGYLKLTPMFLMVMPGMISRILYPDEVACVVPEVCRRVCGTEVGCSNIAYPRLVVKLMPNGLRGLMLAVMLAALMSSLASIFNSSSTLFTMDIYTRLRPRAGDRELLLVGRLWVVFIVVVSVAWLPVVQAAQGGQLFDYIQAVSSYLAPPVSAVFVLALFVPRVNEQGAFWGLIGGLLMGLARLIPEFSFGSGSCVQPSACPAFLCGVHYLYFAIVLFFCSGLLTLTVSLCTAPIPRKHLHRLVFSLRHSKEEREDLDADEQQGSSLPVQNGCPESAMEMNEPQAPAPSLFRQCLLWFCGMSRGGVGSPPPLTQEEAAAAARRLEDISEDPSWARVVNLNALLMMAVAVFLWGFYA
Test: Inhibition of human kidney SGLT2 expressed in CHOK1 cells assessed as decrease in [14C]-AMG uptake at 30 nM preincubated for 10 mins followed by [14C]-AMG addition and measured after 2 hrs by TopCount method relative to control
Assay type: cell-based
This listing pairs compounds with measured inhibition.
Number in %, nothing else.

# annotated cases, reported inhibition shown
COc1cc(C2CC2)c(Cc2ccc3c(c2)CC3)cc1[C@@H]1O[C@H](CO)[C@@H](O)[C@H](O)[C@H]1O ... 31
OC[C@H]1O[C@@H](c2cccc(Cc3ccc4c(c3)CC4)c2)[C@H](O)[C@@H](O)[C@@H]1O ... 23
CN(C)c1ccc([C@@H]2O[C@H](CO)[C@@H](O)[C@H](O)[C@H]2O)cc1Cc1ccc2c(c1)CC2 ... 35

Read the next record carefully.
**Query** // map "N#Cc1ccc([C@@H]2O[C@H](CO)[C@@H](O)[C@H](O)[C@H]2O)cc1Cc1ccc2c(c1)CC2" to recorded inhibition (system: Sodium/glucose cotransporter 2 (Homo sapiens) (UniProt P31639))
**Result** 43
